Data provenance is patent US6355658B1.

measurement.target: bovine α-chymotrypsin (Bos taurus)
Construct: bovine α-chymotrypsin
measurement.notes: Inactivation kinetics of bovine α-chymotrypsin (chromogenic substrate Suc-Ala2-Pro-Phe-pNA)
Assay type: biochemical
experimental.setup: TABLE 5, phenyl esters; 25° C., pH 7.5; without 6-chloromethyl: inactivation phase of transient inactivation; N.I. = non-inactivator; read-out: Ki/KI or kobs/[I], α-CT
experimental.endpoint: kinact/KI (M⁻¹ s⁻¹)

# annotated cases, reported kinact/KI shown
O=C(Sc1ccccc1)c1cc2cc(CCl)ccc2oc1=O :: 39000
Cc1ccc2oc(=O)c(C(=O)Oc3cccc(Cl)c3)cc2c1 :: 9400
O=C(Oc1cccc(Cl)c1Cl)c1cc2cc(CCl)ccc2oc1=O :: 1200
COc1cc(Cl)cc(OC(=O)c2cc3cc(CCl)ccc3oc2=O)c1 :: 1200

[A] O=C(Oc1cc(Cl)cc(Cl)c1)c1cc2cc(CCl)ccc2oc1=O
[B] CC(=O)OCc1ccc2oc(=O)c(C(=O)Oc3cccc(Cl)c3)cc2c1
Input: Which has the higher kinact/KI, A or B ? Answer format: the label of the selected item.
Output: A
(A: 110000 M⁻¹ s⁻¹, B: 20000 M⁻¹ s⁻¹)

[P] O=C(Oc1ccccc1[N+](=O)[O-])c1cc2cc(CCl)ccc2oc1=O
[Q] O=C(Sc1cccc(Cl)c1)c1cc2cc(CCl)ccc2oc1=O
Input: Please choose the item with the lower kinact/KI value from this pair: P and Q Answer format: the label of the selected item.
Output: P
(P: 9300 M⁻¹ s⁻¹, Q: 730000 M⁻¹ s⁻¹)
